Examples of compounds with documented AC50 follow.
assaySystem: Melanocortin receptor 3 (Homo sapiens, UniProt P41968); also: assay procedure not described here
Sequence (P41968 whole entry): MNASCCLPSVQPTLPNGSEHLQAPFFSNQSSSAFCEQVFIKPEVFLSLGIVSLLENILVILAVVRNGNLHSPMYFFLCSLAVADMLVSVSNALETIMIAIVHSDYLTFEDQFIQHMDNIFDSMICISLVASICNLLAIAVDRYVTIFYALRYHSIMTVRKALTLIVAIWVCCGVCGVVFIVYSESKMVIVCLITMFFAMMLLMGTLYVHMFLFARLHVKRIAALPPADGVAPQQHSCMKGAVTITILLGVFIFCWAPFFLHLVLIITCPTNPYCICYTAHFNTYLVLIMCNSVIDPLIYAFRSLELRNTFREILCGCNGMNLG

Reference set, count: 8
COc1cc2nccc(Oc3ccc(NC(=O)Nc4cc(C)on4)c(Cl)c3)c2cc1OC ... > 3 µM
CNCC[C@H](Oc1cccc2ccccc12)c1cccs1 ... 22.7 µM
CCCOC(C(=O)OC1CCN(C)CC1)(c1ccccc1)c1ccccc1 ... > 30 µM
COc1c(O[C@@H]2O[C@H](CO)[C@@H](O)[C@H](O)[C@H]2O)cc2c(c1OC)-c1ccc(SC)c(=O)cc1[C@@H](NC(C)=O)CC2 [THIOCOLCHICOSIDE] ... > 30 µM
Cc1ccc(=O)n(-c2ccccc2)c1 ... > 30 µM
CCCCCCOC(=O)CCC(=O)CN [HEXAMINOLEVULINATE] ... > 30 µM
CN(c1nccc(=O)[nH]1)C1CCN(c2nc3ccccc3n2Cc2ccc(F)cc2)CC1 ... > 30 µM
CNC[C@H](O)c1cccc(O)c1 ... > 30 µM

Now look at this one.
Give the measured AC50 of C[C@]1(COc2ccc(N3CCC(Oc4ccc(OC(F)(F)F)cc4)CC3)cc2)Cn2cc([N+](=O)[O-])nc2O1 .
> 30 µM

###

assaySystem: Alpha-1A adrenergic receptor (Homo sapiens); also: assay procedure not described here
Sequence (P35348 whole entry): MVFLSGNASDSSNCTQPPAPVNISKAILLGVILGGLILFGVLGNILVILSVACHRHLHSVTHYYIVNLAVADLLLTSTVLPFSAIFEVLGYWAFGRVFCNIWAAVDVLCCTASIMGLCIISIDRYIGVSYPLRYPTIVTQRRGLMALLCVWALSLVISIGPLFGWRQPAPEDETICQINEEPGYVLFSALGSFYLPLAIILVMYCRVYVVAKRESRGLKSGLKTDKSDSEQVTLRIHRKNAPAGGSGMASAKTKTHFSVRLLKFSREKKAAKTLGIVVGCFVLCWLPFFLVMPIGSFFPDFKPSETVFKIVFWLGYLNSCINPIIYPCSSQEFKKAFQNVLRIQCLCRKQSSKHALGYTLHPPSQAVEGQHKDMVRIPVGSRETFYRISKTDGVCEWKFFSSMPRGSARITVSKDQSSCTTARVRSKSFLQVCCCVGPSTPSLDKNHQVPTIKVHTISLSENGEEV
Assay type: functional, cell-based
Examples of compounds with documented AC50 follow.

Reference set, count: 3
C[C@H]1O[C@@H](O[C@H]2[C@@H](O)C[C@H](O[C@H]3[C@@H](O)C[C@H](O[C@H]4CC[C@@]5(C)[C@H](CC[C@@H]6[C@@H]5CC[C@]5(C)[C@@H](C7=CC(=O)OC7)CC[C@]65O)C4)O[C@@H]3C)O[C@@H]2C)C[C@H](O)[C@@H]1O ... > 30 µM
Nc1nc(N)nc(Nc2ccc([As]3SCC(CO)S3)cc2)n1 (stereo not drawn) ... > 30 µM
O=[N+]([O-])O[C@H]1CO[C@H]2[C@@H]1OC[C@H]2O[N+](=O)[O-] [ISOSORBIDE DINITRATE] ... > 30 µM

Give the measured AC50 of N=C(N)NCc1cccc([123I])c1 .
10.7 µM

Param item: CC(c1ccc(Cl)c(Cl)c1)N1N=C(N)CC1=O (stereo not drawn)
> 30 µM

Param item: Cn1c(=O)c2c(ncn2CC(O)CO)n(C)c1=O (stereo not drawn)
> 30 µM

Param item: O=C(O)c1cc(=O)c2ccccc2o1
> 30 µM

Param item: NC(=O)NCCC[C@H](N)C(=O)O
> 30 µM

###

// each record: one item and its AC50 for UniProt:P28335
Sequence (P28335 whole entry): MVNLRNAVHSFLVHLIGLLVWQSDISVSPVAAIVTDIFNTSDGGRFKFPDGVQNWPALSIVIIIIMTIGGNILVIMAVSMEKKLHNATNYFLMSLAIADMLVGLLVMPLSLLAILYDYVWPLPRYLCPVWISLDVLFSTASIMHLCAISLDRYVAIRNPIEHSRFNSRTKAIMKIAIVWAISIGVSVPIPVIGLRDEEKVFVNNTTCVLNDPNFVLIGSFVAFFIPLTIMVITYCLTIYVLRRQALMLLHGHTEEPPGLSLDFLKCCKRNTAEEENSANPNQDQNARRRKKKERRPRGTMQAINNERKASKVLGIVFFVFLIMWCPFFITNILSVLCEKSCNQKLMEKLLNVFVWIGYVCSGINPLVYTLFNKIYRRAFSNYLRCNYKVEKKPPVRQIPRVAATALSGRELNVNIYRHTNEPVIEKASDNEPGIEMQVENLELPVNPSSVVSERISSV

Reference set, count: 5
CC1(C)C(C=C(Cl)Cl)C1C(=O)OCc1cccc(Oc2ccccc2)c1 (stereo not drawn) ... > 30 µM
O=C(O)c1cc(O)c2c3nc4ccccc4oc-3cc(=O)c2n1 ... 2.3 µM
COc1ccc(/C=C/C(=O)Nc2ccccc2C(=O)O)cc1OC ... > 30 µM
COc1cccc2c1C(=O)c1c(O)c3c(c(O)c1C2=O)C[C@@](O)(C(C)=O)C[C@@H]3O[C@H]1C[C@H](N)[C@H](O)[C@H](C)O1 ... 14.1 µM
NS(=O)(=O)c1cc(C(=O)O)cc(N2CCCC2)c1Oc1ccccc1 [PIRETANIDE] ... > 30 µM

Recall the recorded AC50 for O=C(Nc1nc(-c2cc(Cl)cs2)c(N2CCN(C3CCCCC3)CC2)s1)c1cnc(N2CCC(C(=O)O)CC2)c(Cl)c1 with UniProt:P28335 and state it.
> 10 µM

Param item: COC(=O)[C@H](c1ccccc1Cl)N1CCc2sccc2C1
> 30 µM

Param item: CO/N=C(\C(=O)N[C@@H]1C(=O)N2C(C(=O)O)=C(COC(N)=O)CS[C@H]12)c1ccco1
> 30 µM

Param item: CC(NCCc1ccc(O)cc1)C(O)c1ccc(O)cc1 (stereo not drawn)
> 30 µM

Param item: CCn1cc(C(=O)O)c(=O)c2cc(F)c(N3CCNCC3)nc21
> 10 µM

Param item: C#Cc1cccc(Nc2ncnc3cc(OCCOC)c(OCCOC)cc23)c1
> 30 µM

Param item: NS(=O)(=O)c1cc2c(cc1C(F)(F)F)NC(Cc1ccccc1)NS2(=O)=O (stereo not drawn) [BENDROFLUMETHIAZIDE]
> 30 µM

Param item: O=C1NC(=O)C(c2ccccc2)(c2ccccc2)N1
> 30 µM

Param item: CC(=O)OCC(=O)[C@@]1(O)CC[C@H]2[C@@H]3CCC4=CC(=O)CC[C@]4(C)C3=CC[C@@]21C [ANECORTAVE ACETATE]
> 30 µM

Param item: CNC(=O)Oc1ccc2c(c1)[C@]1(C)CCN(C)[C@@H]1N2C
> 30 µM

Param item: CCc1oc2ccccc2c1C(=O)c1cc(Br)c(O)c(Br)c1
> 30 µM

Param item: CCN(CC)C(=O)C1(c2ccccc2)CC1CN (stereo not drawn)
0.59 µM

Param item: CC[N+]1(C)CCCC(OC(=O)C(O)(c2ccccc2)c2ccccc2)C1 (stereo not drawn) [PIPENZOLATE]
> 30 µM
